# system.tested: Recombinant His-tagged HIV-1 integrase (Human immunodeficiency virus type 1 group M subtype B, UniProt P12497, C1427S/F1332K)
# Construct: Recombinant His-tagged HIV-1 integrase; His; made in house; host or cells: E. coli BL21(DE3)
# assay.notes: Enzymatic integrase assay (oligonucleotide-based DNA strand transfer, ELISA)
# Format: biochemical
Output satisfied for records whose IC50 is lower than 3000 nM, not satisfied for records at or above 3000 nM.

Please review the following examples before continuing.
- compound: "C#CCOc1c2c(c(O)c3nccnc13)C(=O)N(Cc1ccc3c(c1)OCO3)C2=O"
  class.label: "not satisfied"
- compound: "C[C@H](c1ccccc1)N1C(=O)c2c(c(O)c3nccnc3c2O)C1=O"
  class.label: "satisfied"
- compound: "O=C1c2c(c(O)c3ccccc3c2O)C(=O)N1Cc1ccc(F)cc1"
  class.label: "not satisfied"
- compound: "Cc1ccc2c(O)c3c(c(O)c2n1)C(=O)N(CCc1ccccc1)C3=O"
  class.label: "not satisfied"

Could you now look at the following compound, please?
Task item: Threshold test, IC50 < 3000 nM: Cc1ccc2c(O)c3c(c(O)c2n1)C(=O)N(Cc1ccc(F)cc1)C3=O
Reply: satisfied

---

# system.tested: Recombinant His-tagged HIV-1 integrase (Human immunodeficiency virus type 1 group M subtype B, UniProt P12497, C1427S/F1332K)
# Construct: Recombinant His-tagged HIV-1 integrase; His
# assay.notes: Enzymatic integrase assay (oligonucleotide-based DNA strand transfer, ELISA)
# Procedure: Enzymatic Integrase Assay The activity of HIV-integrase was determined using an oligonucleotide-based assay in which the DNA strand transfer by preformed complexes of integrase and processed DNA was measured by means of an enzyme-linked immunosorbent assay (ELISA) in microtiter plate format. […]
pIC50: −log10 of the molar value.
// thresholds for pIC50 classes: lower: < 5; middle: ≥ 5 and < 6; upper: ≥ 6

Please review the following examples before continuing.
- compound: "O=C1c2c(c(O)c3nccnc3c2O)C(=O)N1Cc1ccc2c(c1)OCO2"
  class.label: "upper"
- compound: "O=C1c2c(c(O)c3nccnc3c2O)C(=O)N1Cc1ccncc1"
  class.label: "middle"
- compound: "CC(c1ccccc1)N1C(=O)c2c(c(O)c3ccccc3c2O)C1=O (stereo not shown)"
  class.label: "lower"
- compound: "O=C1c2c(c(O)c3nccnc3c2O)C(=O)N1CC1CCCCC1"
  class.label: "middle"
- compound: "Cc1ccc2c(O)c3c(c(O)c2n1)C(=O)N(c1ccccc1)C3=O"
  class.label: "lower"
- compound: "O=C1c2c(c(O)c3nccnc3c2O)C(=O)N1Cc1ccc(F)cc1"
  class.label: "upper"

Task item: Sort O=C1c2c(c(O)c3nccnc3c2O)C(=O)N1Cc1ccc(Oc2ccccc2)cc1 into one of the categories.
Reply: middle

Task item: Sort O=C1c2c(c(O)c3ncccc3c2O)C(=O)N1CCc1ccccc1 into one of the categories.
Reply: middle

Task item: Sort Cc1ccc2c(O)c3c(c(O)c2n1)C(=O)N(Cc1ccc2c(c1)OCO2)C3=O into one of the categories.
Reply: middle

Task item: Sort O=C1c2c(c(O)c3ccccc3c2O)C(=O)N1CCc1ccccc1 into one of the categories.
Reply: lower

Task item: Sort O=C1c2c(c(O)c3c(ncn3Cc3ccccc3)c2O)C(=O)N1Cc1ccc2c(c1)OCO2 into one of the categories.
Reply: upper

---

# system.tested: Recombinant His-tagged HIV-1 integrase (Human immunodeficiency virus type 1 group M subtype B, UniProt P12497, C1427S/F1332K)
# Construct: Recombinant His-tagged HIV-1 integrase; His; made in house; host or cells: E. coli BL21(DE3)
# assay.notes: Enzymatic integrase assay (oligonucleotide-based DNA strand transfer, ELISA)
# Assay type: biochemical
# Method: Enzymatic Integrase Assay The activity of HIV-integrase was determined using an oligonucleotide-based assay in which the DNA strand transfer by preformed complexes of integrase and processed DNA was measured by means of an enzyme-linked immunosorbent assay (ELISA) in microtiter plate format. […]
quantity.kind: IC50 (nM)
Give bare numbers, in nM.

- compound: "Cc1ccc2c(O)c3c(c(O)c2n1)C(=O)N(Cc1cccc(F)c1)C3=O"
  readout.unit: "nM"
  IC50: 871
- compound: "CC(c1ccccc1)N1C(=O)c2c(c(O)c3c(ncn3Cc3ccccc3)c2O)C1=O (centres unmarked)"
  readout.unit: "nM"
  IC50: 1120
- compound: "CC(C)CCOc1c2c(c(O)c3nccnc13)C(=O)N(Cc1ccc3c(c1)OCO3)C2=O"
  readout.unit: "nM"
  IC50: 1480
- compound: "O=C1c2c(c(O)c3nccnc3c2O)C(=O)N1Cc1cccc(CN2C(=O)c3c(c(O)c4nccnc4c3O)C2=O)c1"
  readout.unit: "nM"
  IC50: 7590
- compound: "O=C1c2c(c(O)c3nccnc3c2O)C(=O)N1Cc1cccc2ccccc12"
  readout.unit: "nM"
  IC50: 1410

Report IC50 for each item below.
1. Cc1ccc2c(O)c3c(c(O)c2n1)C(=O)N(C(C)c1ccccc1)C3=O (centres unmarked)
2. O=C1c2c(c(O)c3nccnc3c2O)C(=O)N1c1ccc2c(c1)OCO2

Reply:
1. 10700
2. 10000

Report IC50 for each item below.
1. COc1ccc(CN2C(=O)c3c(c(O)c4nccnc4c3O)C2=O)cc1
2. O=C1c2c(c(O)c3nccnc3c2O)C(=O)N1CCc1ccccc1
3. CC(c1ccccc1)N1C(=O)c2c(c(O)c3nccnc3c2O)C1=O (centres unmarked)

Reply:
1: 562; 2: 2040; 3: 2040

Report IC50 for each item below.
1. CS(=O)(=O)c1ccc(CN2C(=O)c3c(c(O)c4nccnc4c3O)C2=O)cc1
2. O=C1c2c(c(O)c3nccnc3c2O)C(=O)N1C1CCCC1
3. O=C1c2c(c(O)c3nccnc3c2O)C(=O)N1c1ccc(F)cc1

Reply:
1. 8710
2. 10500
3. 21900
